Source listed as paper PMC10064984.

tested.target: COX-2 (Homo sapiens, UniProt P35354)
Construct: purchased Beyotime S0168
Sequence (P35354 18-604): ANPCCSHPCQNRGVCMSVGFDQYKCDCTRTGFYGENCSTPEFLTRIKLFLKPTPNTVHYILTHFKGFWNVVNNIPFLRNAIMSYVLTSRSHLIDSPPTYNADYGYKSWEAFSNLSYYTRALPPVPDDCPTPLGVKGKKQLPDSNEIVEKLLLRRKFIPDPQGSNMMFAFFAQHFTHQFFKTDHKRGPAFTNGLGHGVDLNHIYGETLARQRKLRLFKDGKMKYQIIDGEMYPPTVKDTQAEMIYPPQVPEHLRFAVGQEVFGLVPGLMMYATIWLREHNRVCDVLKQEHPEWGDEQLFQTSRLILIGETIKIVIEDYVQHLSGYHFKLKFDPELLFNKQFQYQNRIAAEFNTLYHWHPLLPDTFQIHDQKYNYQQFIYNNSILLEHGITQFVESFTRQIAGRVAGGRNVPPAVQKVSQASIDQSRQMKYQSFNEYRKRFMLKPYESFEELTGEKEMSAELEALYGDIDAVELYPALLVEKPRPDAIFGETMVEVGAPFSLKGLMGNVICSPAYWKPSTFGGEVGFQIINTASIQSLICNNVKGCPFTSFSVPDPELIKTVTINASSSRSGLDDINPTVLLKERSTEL
method.description: Anti-COX-2 assay (COX-2 Inhibitor Screening Kit)
Assay type: biochemical
conditions: mean ± SD, n = 3; nd, not detected; read-out: COX-2 IC50
pIC50: −log10 of the molar value.
Entries annotated with measured pIC50
property.label: pIC50

# molecule, measured
measured = [
    ("COc1cc(-c2oc3cc(O)cc(O)c3c(=O)c2OC2OC(CO)C(O)C(O)C2O)ccc1O (centres unmarked) [compound 32, Isorhamnetin-3-O-glucoside]", 3.27),
    ("O=c1cc(-c2ccc(O)c(O)c2)oc2cc(O)c(C3OC(CO)C(O)C(O)C3O)c(O)c12 [compound 18, Luteolin-6-C-β-D-glucoside]", 5.10),
    ("O=c1cc(-c2ccc(O)c(O)c2)oc2c(C3OCC(O)C(O)C3O)c(O)c(C3OC(CO)C(O)C(O)C3O)c(O)c12 (centres unmarked)", 4.86),
    ("O=C(O)CC(=O)OCC1OC(Oc2c(-c3ccc(O)c(O)c3)oc3cc(O)cc(O)c3c2=O)C(O)C(O)C1O (centres unmarked) [compound 27, Quercetin 3-O-(6″-malonyl-glucoside)]", 4.90),
    ("O=c1c(OC2OC(CO)C(O)C(O)C2OC2OC(CO)C(O)C(O)C2O)c(-c2ccc(O)c(O)c2)oc2cc(O)cc(O)c12 (centres unmarked) [compound 16, Quercetin-3-O-sophoroside]", 4.96),
]

====

tested.target: COX-2 (Homo sapiens, UniProt P35354)
Construct: purchased Beyotime S0168
method.description: Anti-COX-2 assay (COX-2 Inhibitor Screening Kit)
Type: biochemical
conditions: 100 μM, single replicates
Label rule, in plain words: inhibition at 100 µM of 80% and up is T, under 80% is F.

# molecule, assigned.category
data = [
    ("O=C(O)CC(=O)OCC1OC(Oc2c(-c3ccc(O)c(O)c3)oc3cc(O)cc(O)c3c2=O)C(O)C(O)C1O (stereo not drawn) [compound 27, Quercetin 3-O-(6″-malonyl-glucoside)]", "F"),
    ("O=c1cc(-c2ccc(O)c(O)c2)oc2c(C3OCC(O)C(O)C3O)c(O)c(C3OC(CO)C(O)C(O)C3O)c(O)c12 (stereo not drawn)", "T"),
    ("O=c1cc(-c2ccc(O)c(O)c2)oc2cc(O)c(C3OC(CO)C(O)C(O)C3O)c(O)c12 [compound 18, Luteolin-6-C-β-D-glucoside]", "T"),
    ("O=c1c(O[C@@H]2O[C@H](CO)[C@@H](O)[C@H](O)[C@H]2O)c(-c2ccc(O)c(O)c2)oc2cc(O)cc(O)c12", "F"),
]
